System: Huh-7.5 cells
Assay: Cytotoxicity assay (alamarBlue) on Huh-7.5 cells
Conditions: Huh-7.5 cells, alamarBlue reduction
Counter-ions that a name gives are not always drawn.
Reported CC50 values are given for each entry in this list.
Numeric answer only, unit µM assumed.

Worked examples, 2 compounds total:
- compound: "Cc1c(O)cccc1C(=O)N[C@@H](CSc1ccccc1)[C@H](O)CN1C[C@H]2CCCC[C@H]2C[C@H]1C(=O)NC(C)(C)C [Nelfinavir mesylate]"
  CC50 (µM): 26
- compound: "N[C@@H](CC(=O)N1CCn2c(nnc2C(F)(F)F)C1)Cc1cc(F)c(F)cc1F [Sitagliptin]"
  CC50 (µM): 22

We now examine a further compound.
Req: Given the entry O[C@H]1[C@H]2c3cc4c(cc3CN3CCC(=C[C@@H]1O)[C@H]23)OCO4 [Lycorine HCl] , what CC50 was observed with Huh-7.5 cells?
Resp: 19

====

Molecular target: SARS-CoV-2 Mpro (Severe acute respiratory syndrome coronavirus 2)
Assay: biochemical
property-name: pIC50
Scale: negative log10 of molar concentration, which is what pIC50 denotes.

Req: Look up pIC50: CC(C)C[C@H](NC(=O)OCc1ccccc1)C(=O)N[C@@H](CC1CCNC1=O)C(O)S(=O)(=O)O (stereo partly shown)
Resp: 6.89

====

Target: SARS-CoV-2 Mpro (Severe acute respiratory syndrome coronavirus 2, UniProt P0DTC1)
Experiment: biochemical
Conditions: Mpro 200 nM, substrate 10 μM, 1 h pre-incubation; read-out: IC50
Non-standard residues stand in square brackets, D forms with d. Residues, ends and D or L forms follow the SMILES beside them. Nle = CCCC[C@H](N)C(=O)O
property-name: IC50 (µM)
Give the quantity in µM, number only.

Req: Fill in the recorded IC50 for this compound, with SARS-CoV-2 Mpro (Severe acute respiratory syndrome coronavirus 2, UniProt P0DTC1) as test system: CCCC[C@@H](C=O)NC(=O)[C@H](CC(C)C)NC(=O)[C@H](CC(C)C)NC(C)=O [MG-101] (Ac-Leu-Leu-[Nle]-aldehyde)
Resp: 2.89

====

Attribute: CC50 at 24 h
Experiment: in vitro
Conditions: human, CC50
Give your result in µM as a bare value.

- structure-as-smiles: "CC(C)(C)C#Cc1cc(N(C(=O)[C@H]2CC[C@H](C)CC2)[C@H]2CC[C@H](O)CC2)c(C(=O)O)s1"
  CC50 at 24 h [µM]: 48

Req: What CC50 at 24 h value was documented for this molecule, Cn1c(N2CCCCS2(=O)=O)nc(C(=O)NCc2ccc(F)cc2)c(O)c1=O ?
Resp: 42.2

====

Biological target: SARS-CoV-2 PLpro (Severe acute respiratory syndrome coronavirus 2)
Test: In vitro PLpro protease inhibition assay (Z-RLRGG-AMC)
Format: biochemical
Counter-ions that a name gives are not always drawn.
property-name: pIC50
# reply with the number alone; pIC50 is -log10 of concentration in mol/L

Req: Entry COC(=O)N[C@H](C(=O)N1CCC[C@H]1c1nc(-c2ccc(-c3ccc(-c4c[nH]c([C@@H]5CCCN5C(=O)[C@@H](NC(=O)OC)C(C)C)n4)cc3)cc2)c[nH]1)C(C)C [Daclastavir HCl] : reported pIC50 = ?
Resp: 5.74

====

Target: UniProt:P0DTC1
Assay: In-cell protease (ICP) assay, Mpro construct in HEK293T cells
Format: cell-based
Settings: HEK-293T, read-out: mEmerald-NLS nuclear/total fluorescence (protease activity) normalized to untreated cells, 10 μM, HEK293T, Fig 2A replicate data, untreated control = 100
Structures can show the parent of a compound that is named as a salt. Non-standard residues stand in square brackets, D forms with d. Residues, ends and D or L forms follow the SMILES beside them. Nle = CCCC[C@H](N)C(=O)O
property-name: remaining activity at 10 µM (%)
Please state the figure in %; there is no need to write the unit.

Take a look at these entries with their results.
- compound: "COc1cc(O)c(CC=C(C)C)c2c1C(=O)CC(c1ccc(O)cc1)O2 (stereo not shown)"
  target: "UniProt:P0DTC1"
  remaining activity at 10 µM [%]: 60
- compound: "CC(C)(C)NC(=O)N[C@H](C(=O)N1C[C@H]2[C@@H]([C@H]1C(=O)NC(CC1CCC1)C(=O)C(N)=O)C2(C)C)C(C)(C)C (stereo partly shown)"
  target: "UniProt:P0DTC1"
  remaining activity at 10 µM [%]: 69
- compound: "CC(C)(C)C#Cc1cc(N(C(=O)[C@H]2CC[C@H](C)CC2)[C@H]2CC[C@H](O)CC2)c(C(=O)O)s1"
  target: "UniProt:P0DTC1"
  remaining activity at 10 µM [%]: 44
- compound: "O[C@H]1[C@H]2c3cc4c(cc3CN3CCC(=C[C@@H]1O)[C@H]23)OCO4 [Lycorine HCl]"
  target: "UniProt:P0DTC1"
  remaining activity at 10 µM [%]: 25
- compound: "Cc1c(O)cccc1C(=O)N[C@@H](CSc1ccccc1)[C@H](O)CN1C[C@H]2CCCC[C@H]2C[C@H]1C(=O)NC(C)(C)C [Nelfinavir mesylate]"
  target: "UniProt:P0DTC1"
  remaining activity at 10 µM [%]: 45
- compound: "COC(=O)N[C@H](C(=O)N[C@@H](Cc1ccccc1)[C@@H](O)CN(Cc1ccc(-c2ccccn2)cc1)NC(=O)[C@@H](NC(=O)OC)C(C)(C)C)C(C)(C)C"
  target: "UniProt:P0DTC1"
  remaining activity at 10 µM [%]: 50
- compound: "Cn1c(N2CCCCS2(=O)=O)nc(C(=O)NCc2ccc(F)cc2)c(O)c1=O"
  target: "UniProt:P0DTC1"
  remaining activity at 10 µM [%]: 60
- compound: "C=C[C@@H]1C[C@]1(NC(=O)[C@@H]1C[C@@H](Oc2ncc(OC)c3ccc(Cl)cc23)CN1C(=O)[C@@H](NC(=O)OC(C)(C)C)C(C)(C)C)C(=O)NS(=O)(=O)C1CC1"
  target: "UniProt:P0DTC1"
  remaining activity at 10 µM [%]: 69

Req: Given the entry CCCC[C@@H](C=O)NC(=O)[C@H](CC(C)C)NC(=O)[C@H](CC(C)C)NC(C)=O [MG-101] (Ac-Leu-Leu-[Nle]-aldehyde) , report its measured remaining activity at 10 µM.
Resp: 8.9

Req: Could you tell me which remaining activity at 10 µM is on file for Cc1cccc(C)c1OCC(=O)N[C@@H](Cc1ccccc1)[C@@H](O)C[C@H](Cc1ccccc1)NC(=O)[C@H](C(C)C)N1CCCNC1=O ?
Resp: 65
